Where these numbers come from: paper PMC4931022

Target entity: KDM6B (Homo sapiens, UniProt O15054)
Construct: His6 (N); made in house; host or cells: Escherichia coli
Sequence (O15054 1141-1590 limits assumed): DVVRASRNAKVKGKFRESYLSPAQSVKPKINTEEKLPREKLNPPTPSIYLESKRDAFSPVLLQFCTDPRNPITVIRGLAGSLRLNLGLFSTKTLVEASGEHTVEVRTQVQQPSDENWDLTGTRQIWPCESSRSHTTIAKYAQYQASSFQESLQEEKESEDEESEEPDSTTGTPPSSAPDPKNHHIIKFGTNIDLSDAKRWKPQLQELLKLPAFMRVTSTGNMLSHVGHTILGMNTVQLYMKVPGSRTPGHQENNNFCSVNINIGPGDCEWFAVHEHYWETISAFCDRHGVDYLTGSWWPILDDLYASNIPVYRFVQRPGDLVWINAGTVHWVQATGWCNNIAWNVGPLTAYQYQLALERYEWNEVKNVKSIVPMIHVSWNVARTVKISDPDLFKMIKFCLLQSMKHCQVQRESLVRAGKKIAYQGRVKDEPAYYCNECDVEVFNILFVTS
Assay: MALDI MS activity assay, recombinant KDM6B catalytic domain
Format: biochemical
Condition notes: KDM6B 2 μM, peptide 10 μM, 1 h, 37 °C, 2OG 100 μM, ascorbate 100 μM, Fe(II) 10 μM, 50 mM HEPES pH 7.5, 150 mM NaCl; MALDI-TOF MS, −14 Da shift
Quantity kind: observed arginine demethylation activity

Substance: STGGKAP-Rme2a-KQLATKA [H3 (10–24) R17me2a, 'natural' histone H3 peptide asymmetrically dimethylated at R17]
Quantity kind: observed arginine demethylation activity
Result: −
//
Substance: KQLATKAA-Rme-KSAPAT [H3 (18–32) R26me, 'natural' histone H3 peptide monomethylated at R26]
Quantity kind: observed arginine demethylation activity
Result: −
//
Substance: SG-Rme2a-GKGGKGLGKGGA [H4(1-15)R3me2a, 'natural' histone H4 residues 1-15 peptide asymmetrically dimethylated at R3]
Quantity kind: observed arginine demethylation activity
Result: −

###

Target entity: KDM4E (Homo sapiens)
Construct: His6 (N); made in house; host or cells: Escherichia coli
Sequence (B2RXH2 1-337): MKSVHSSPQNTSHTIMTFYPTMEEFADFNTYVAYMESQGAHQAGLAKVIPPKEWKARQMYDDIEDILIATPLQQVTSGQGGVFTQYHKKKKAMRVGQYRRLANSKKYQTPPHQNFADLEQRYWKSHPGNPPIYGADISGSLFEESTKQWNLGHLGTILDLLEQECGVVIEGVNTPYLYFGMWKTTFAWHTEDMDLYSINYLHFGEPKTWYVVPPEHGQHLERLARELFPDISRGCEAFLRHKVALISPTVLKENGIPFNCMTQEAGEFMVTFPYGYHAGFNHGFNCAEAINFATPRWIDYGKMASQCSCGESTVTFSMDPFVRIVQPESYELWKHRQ
Assay: MALDI MS activity assay, recombinant KDM4E catalytic domain
Assay type: biochemical
Condition notes: KDM4E 2 μM, peptide 10 μM, 1 h, 37 °C, 2OG 200 μM, ascorbate 100 μM, Fe(II) 10 μM, 50 mM HEPES pH 7.5; MALDI-TOF MS, −14 Da shift
Quantity kind: observed arginine demethylation activity

Substance: A-Rme2a-TKQTARKSTGGKA [H3(1-15)R2me2a, 'natural' histone H3 peptide asymmetrically dimethylated at R2]
Result: +

Substance: A-Rme-TKQTARKSTGGKA [H3 (1–15) R2me, 'natural' histone H3 peptide monomethylated at R2]
Result: +

Substance: STGGKAP-Rme-KQLATKA [H3 (10–24) R17me, 'natural' histone H3 peptide monomethylated at R17]
Result: −

###

Target entity: KDM5C (Homo sapiens, UniProt P41229)
Construct: KDM5C1–765 was produced as an N-terminally His6-tagged protein in Sf9 cells; His6 (N); made in house; host or cells: Sf9 cells (provided by the Structural Genomics Consortium)
Sequence (P41229 1-765): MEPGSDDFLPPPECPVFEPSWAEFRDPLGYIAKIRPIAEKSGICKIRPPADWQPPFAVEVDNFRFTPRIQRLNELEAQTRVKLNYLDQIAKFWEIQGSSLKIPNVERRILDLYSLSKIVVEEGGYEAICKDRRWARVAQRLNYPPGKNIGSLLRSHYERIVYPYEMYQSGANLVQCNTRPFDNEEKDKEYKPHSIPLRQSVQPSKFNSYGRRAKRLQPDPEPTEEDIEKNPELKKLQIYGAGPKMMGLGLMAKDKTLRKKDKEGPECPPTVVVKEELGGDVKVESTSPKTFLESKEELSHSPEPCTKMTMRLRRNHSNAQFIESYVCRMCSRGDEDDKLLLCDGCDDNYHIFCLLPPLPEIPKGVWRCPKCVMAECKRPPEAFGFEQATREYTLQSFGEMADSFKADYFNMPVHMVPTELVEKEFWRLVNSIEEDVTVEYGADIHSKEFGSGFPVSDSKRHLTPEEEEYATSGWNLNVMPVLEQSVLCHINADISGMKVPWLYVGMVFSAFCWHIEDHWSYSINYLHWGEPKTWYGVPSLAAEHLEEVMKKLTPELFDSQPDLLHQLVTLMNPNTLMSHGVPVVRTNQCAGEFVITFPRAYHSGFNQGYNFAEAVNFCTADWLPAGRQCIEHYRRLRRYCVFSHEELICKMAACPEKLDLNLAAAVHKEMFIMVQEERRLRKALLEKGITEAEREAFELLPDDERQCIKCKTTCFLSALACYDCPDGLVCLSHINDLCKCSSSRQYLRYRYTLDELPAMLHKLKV
Assay: Formaldehyde dehydrogenase-coupled demethylation assay, KDM5C
Format: biochemical
Condition notes: KDM5C; calculated from the average kcat and KM values; μM^−1 s^−1 for this quantity
kcat/KM for assorted substances

Illustrative cases are given below, each with its answer.
Substance: ART-Kme3-QTARKSTGGKA [H3(1-15)K4me3, recognized histone H3 N-methylated-lysine peptide substrate for KDM5C, reference compound]
Result: 8,800 × 10^−6
--
Substance: A-Rme2a-TKQTARKSTGGKA [H3(1-15)R2me2a, 'natural' histone H3 peptide asymmetrically dimethylated at R2]
Result: 630.0 × 10^−6
--
Substance: ART-Rme2s-QTARKSTGGKA [H3(1-15)K4Rme2s, histone H3 fragment with symmetric dimethylarginine replacing methylated K4]
Result: 219.0 × 10^−6

For record ART-Rme2a-QTARKSTGGKA [H3(1-15)K4Rme2a, histone H3 fragment with asymmetric dimethylarginine replacing methylated K4] the listed kcat/KM is 1,420.0 × 10^−6
